Molecular target: T1, biotinylated synthetic human Amyloid beta 1-42 peptide (human, UniProt P05067 672-713, biotinylated (N-terminal biotin in Example 4))
T1 construct: domain: Amyloid beta 1-42 peptide; Numbers 1-42 count on the Amyloid beta peptide, not on APP; also called biotinylated human Amyloid beta 1-42; N-terminal biotin Abeta 1-42
T1 sequence (P05067 672-713 limits assumed): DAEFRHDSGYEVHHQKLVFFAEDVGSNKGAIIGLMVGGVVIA
Experiment: HTRF epitope competition; purified scFv titrated; competitor Abet0144-GL IgG1-TM
observable: IC50 (nM)
Write the number in nM without appending the unit.

Answered cases to consult:
Quickly give me recorded IC50 for Abet0378 scFv (scFv, V domains shown, not shown: small tags and cut ends) VH: EVQLLESGGGLVQPGGSLRLSCAASGFPFETDIMWWVRQAPGKGLEWVSVIGTNTDNVAYADSVKGRFTISRDNSKNTLYLQMNSLRAEDTAVYYCAREWMDHSRPYYYYGMDVWGQGTLVTVSS VL: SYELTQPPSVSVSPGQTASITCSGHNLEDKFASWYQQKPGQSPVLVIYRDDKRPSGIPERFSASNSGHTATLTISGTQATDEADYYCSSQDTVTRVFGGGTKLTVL
0.97

Given Abet0371 scFv (scFv, V domains shown, not shown: small tags and cut ends, Purified scFv expressed in E. coli) VH: EVQLSESGGGLVQPGGSLRLSCAASHDAFPFDTMWWVRQAPGKGLEWVSVIGSSGGTTVYADSVKGRFTVSRDNSKNTLYLQMNSLRAEDTAVYYCAREWMDHSRPYYYYGMDVWGQGTLVTVSS VL: SYELTQPPSVSVSPGQTASITCSGHNISSSWVSWYQQKPGQSPVLVIYRDDKRPSGIPERFSASNSGHTATLTISGTQATDEADYYCSSQDTVTRVFGGGTKLTVL , respond with its IC50.
0.5

// below: IC50 requested for another binder
Output measured IC50 for this item: Abet0373 scFv (scFv, V domains shown, not shown: small tags and cut ends, Purified scFv expressed in E. coli) VH: EVQLLESGGGLVQPGGSLRLSCVASGFDFERSVMWWVRQAPGKRLEWVSVIGSGKTNITYADSVKGRFTISRDNSKNTLYLQMNSLRAEDTAVYYCAREWMDHSRPYYYYGMDVWGQGTLVTVSS VL: SYELTQPPSVSVSPGQTASITCSGHNLEDKFASWYQQKPGQSPVLVIYRDDKRPSEIPERFSASNSGHTATLTISGTQATDEADYYCSSQDTVTRVFGGGTKLTVL
0.84

From: patent US20190262327A1
